# Tested on: CCRIS mutagenicity, Ames/micronucleus/aberration tests
# test name: CCRIS mutagenicity studies
# condition details: Test System: AMES SALMONELLA TYPHIMURIUM; Strain/Indicator: TA98; Metabolic Activation: NONE; Method: STANDARD PLATE
Activity calls are given as the source filed them. The rule behind the calls is not given here. Where a SMILES comes first, the peptide text is derived from it. [ ]: non-standard residue; d: D form. pGlu = O=C1CC[C@@H](C(=O)O)N1; Thz = O=C(O)[C@@H]1CSCN1
API: response.call in active, inactive

Known results for molecules:
{"columns": ["molecule", "measured on", "class label"],
 "data": [
  ["O=[N+]([O-])c1cc(Cl)cc(Sc2cc(Cl)cc([N+](=O)[O-])c2O)c1O", "CCRIS mutagenicity, Ames/micronucleus/aberration tests", "inactive"],
  ["COc1c(N)cc(C)c(N)c1C", "CCRIS mutagenicity, Ames/micronucleus/aberration tests", "inactive"]
]}

Query: Returns: the outcome recorded for "OC[C@@H](O)[C@@H](O)CO" in this assay.
Response: inactive

Query: Returns: the outcome recorded for "CC[C@H](C)[C@@H]([C@@H](CC(=O)N1CCC[C@H]1[C@H](OC)[C@@H](C)C(=O)N[C@@H](Cc1ccccc1)c1nccs1)OC)N(C)C(=O)[C@@H](NC(=O)[C@H](C(C)C)N(C)C)C(C)C" in this assay.
Response: inactive

Query: Returns: the outcome recorded for "Nc1nc(Cl)cc(Cl)n1" in this assay.
Response: inactive

Query: Returns: the outcome recorded for "c1ccc(-c2nc(-c3ccccc3)c(-c3ccccc3)[nH]2)cc1" in this assay.
Response: active

Query: Returns: the outcome recorded for O=C1CC[C@@H](C(=O)N2CSC[C@H]2C(=O)O)N1 ([pGlu]-[Thz]-OH) in this assay.
Response: inactive

Query: Returns: the outcome recorded for "Cn1cc2ccc([N+](=O)[O-])cc2n1" in this assay.
Response: active

Query: Returns: the outcome recorded for "COC(=O)c1oc([N+](=O)[O-])c(Cl)c1Cl" in this assay.
Response: active

Query: Returns: the outcome recorded for "C1COCCOCCOCCOCCOCCOCCO1" in this assay.
Response: inactive

Query: Returns: the outcome recorded for "O=[N+]([O-])c1ccc2c(c1)oc1ccccc12" in this assay.
Response: active

* * *

# Tested on: CCRIS mutagenicity, Ames/micronucleus/aberration tests
# test name: CCRIS mutagenicity studies
# condition details: Test System: AMES SALMONELLA TYPHIMURIUM; Strain/Indicator: TA98(NR); Metabolic Activation: NONE; Method: STANDARD PLATE
Active and inactive are the calls of the source. No rule for the calls is given here.
API: response.call in active, inactive

{"columns": ["molecule smiles", "class label"],
 "data": [
  ["CC(=O)c1oc([N+](=O)[O-])c(-c2ccccc2)c1-c1ccccc1", "inactive"],
  ["O=[N+]([O-])c1ccc(-c2ccc([N+](=O)[O-])cc2)cc1", "inactive"],
  ["O=[N+]([O-])c1ccc2c(c1)Cc1cc([N+](=O)[O-])ccc1-2", "active"],
  ["O=c1oc2cc([N+](=O)[O-])ccc2c2ccccc12", "active"]
]}

Query: Returns: the outcome recorded for "O=[N+]([O-])c1ccc2c3c4c(cccc4c4ccccc4c13)[C@H](O)[C@H]2O" in this assay.
Response: active

Cited source: PubChem BioAssay AID1259407
